- System: Escherichia coli UB1005
measurement_kind: MIC

Example entries begin here.
{"columns": ["molecule", "result"],
 "data": [
  ["CC[C@H](C)[C@H](NC(=O)[C@H](CCCN=C(N)N)NC(=O)[C@H](C)NC(=O)[C@H](C)N)C(=O)N[C@H](C(=O)N[C@@H](CC(C)C)C(=O)N[C@@H](CCCN=C(N)N)C(=O)NCC(=O)N[C@@H](CCCN=C(N)N)C(=O)N[C@@H](Cc1ccccc1)C(=O)N[C@@H](CCCN=C(N)N)C(N)=O)[C@@H](C)CC [AARIILRGRFR]", "4 µM"],
  ["CC[C@H](C)[C@@H]1NC(=O)[C@H](CCCN=C(N)N)NC(=O)[C@@H](NC(=O)[C@H](CC(C)C)NC(=O)[C@@H](N)CCCN=C(N)N)CSSC[C@@H](C(=O)N[C@@H](CCCN=C(N)N)C(N)=O)NC(=O)[C@H](C(C)C)NC(=O)[C@H](CCCN=C(N)N)NC(=O)[C@H]([C@@H](C)CC)NC(=O)[C@H](C(C)C)NC(=O)[C@H](C(C)C)NC1=O [RLCRIVVIRVCR]", "≥ 128 µM"]
]}

Take each entry in turn and give its MIC.
1. NCCCC[C@H](NC(=O)[C@H](CCCN=C(N)N)NC(=O)[C@H](CCCN=C(N)N)NC(=O)[C@H](Cc1c[nH]c2ccccc12)NC(=O)[C@@H](N)CCCN=C(N)N)C(=O)N[C@@H](Cc1c[nH]c2ccccc12)C(=O)N[C@@H](Cc1c[nH]c2ccccc12)C(=O)N[C@@H](Cc1c[nH]c2ccccc12)C(=O)N[C@@H](Cc1c[nH]c2ccccc12)C(=O)O [RWRRKWWWW]
2. CC[C@H](C)[C@H](NC(=O)[C@H](CCCN=C(N)N)NC(=O)[C@H](C)NC(=O)[C@H](CC(C)C)NC(=O)[C@@H](N)CCCN=C(N)N)C(=O)N[C@H](C(=O)N1CCC[C@H]1C(=O)N[C@H](C(=O)N[C@@H](CCCN=C(N)N)C(=O)N[C@H](C(=O)N[C@@H](C)C(=O)N[C@@H](CCCN=C(N)N)C(=O)O)C(C)C)[C@@H](C)CC)C(C)C [RLARIVPIRVAR]
3. CC[C@H](C)[C@H](NC(=O)[C@H](CCCCN)NC(=O)[C@H](C)NC(=O)[C@H](C)NC(=O)[C@H](C)NC(=O)[C@H](CCCCN)NC(=O)[C@H](C)NC(=O)[C@H](C)NC(=O)[C@H](C)NC(=O)[C@H](CCCCN)NC(=O)[C@@H](NC(=O)[C@@H](N)Cc1c[nH]c2ccccc12)[C@@H](C)CC)C(=O)N[C@@H](Cc1c[nH]c2ccccc12)C(N)=O [WIKAAAKAAAKIW]
4. CC[C@H](C)[C@H](N)C(=O)N[C@@H](Cc1cnc[nH]1)C(=O)N[C@@H](CCCCN)C(=O)N[C@@H](Cc1ccccc1)C(=O)N[C@@H](Cc1c[nH]c2ccccc12)C(=O)N[C@@H](CCCN=C(N)N)C(=O)N[C@@H](CCCN=C(N)N)C(=O)N[C@@H](Cc1c[nH]c2ccccc12)C(=O)N[C@@H](Cc1ccccc1)C(=O)N[C@@H](CCCCN)C(=O)N[C@@H](Cc1cnc[nH]1)C(=O)N[C@H](C(N)=O)[C@@H](C)CC [IHKFWRRWFKHI]
5. CC[C@H](C)[C@H](NC(=O)[C@H](CCCN=C(N)N)NC(=O)[C@H](CCCN=C(N)N)NC(=O)[C@H](CCCCN)NC(=O)[C@@H](N)CCCN=C(N)N)C(=O)N[C@H](C(=O)N[C@H](C(=O)N[C@H](C(=O)N[C@@H](CCCN=C(N)N)C(=O)N[C@@H](CCCN=C(N)N)C(=O)N[C@@H](CCCCN)C(=O)N[C@@H](CCCN=C(N)N)C(N)=O)[C@@H](C)CC)C(C)C)C(C)C [RKRRIVVIRRKR]
6. CC[C@H](C)[C@H](NC(=O)[C@H](CCCN=C(N)N)NC(=O)[C@H](Cc1ccccc1)NC(=O)[C@H](CCC(N)=O)NC(=O)[C@@H](N)CCCCN)C(=O)N[C@@H](CCCN=C(N)N)C(=O)N[C@H](C(=O)N[C@@H](CCCN=C(N)N)C(=O)N[C@H](C(=O)N[C@H](C(=O)N[C@@H](CCCN=C(N)N)C(=O)N[C@@H](CCCCN)C(N)=O)[C@@H](C)CC)C(C)C)C(C)C [KQFRIRVRVIRK]
7. NCC(=O)N[C@@H](CCCN=C(N)N)C(=O)N[C@@H](Cc1c[nH]c2ccccc12)C(=O)N[C@@H](CCCN=C(N)N)C(=O)N[C@@H](Cc1c[nH]c2ccccc12)C(=O)N[C@@H](Cc1c[nH]c2ccccc12)C(=O)N[C@@H](Cc1c[nH]c2ccccc12)C(=O)N[C@@H](CCCN=C(N)N)C(=O)N[C@@H](Cc1c[nH]c2ccccc12)C(=O)N[C@@H](CCCN=C(N)N)C(=O)N[C@@H](Cc1c[nH]c2ccccc12)C(N)=O [GRWRWWWRWRW]
8. CC(C)C[C@H](NC(=O)[C@H](CCCN=C(N)N)NC(=O)[C@H](Cc1c[nH]c2ccccc12)NC(=O)[C@H](CCCN=C(N)N)NC(=O)[C@@H](NC(=O)[C@H](CCCCN)NC(=O)[C@H](Cc1c[nH]c2ccccc12)NC(=O)[C@H](CCCN=C(N)N)NC(=O)[C@H](CC(C)C)NC(=O)[C@H](Cc1c[nH]c2ccccc12)NC(=O)[C@@H](N)CCCN=C(N)N)[C@@H](C)O)C(=O)N[C@@H](CCCCN)C(N)=O [RWLRWKTRWRLK]

1.4 µM
≥ 176 µM
8 µM
8 µM
≥ 256 µM
1.88 µM
4 µM
4 µM

###

# Staphylococcus epidermidis ATCC 12228: MIC values follow

Example entries begin here.
{"columns": ["compound", "MIC"],
 "data": [
  ["CC[C@H](C)[C@H](NC(=O)[C@H](CCCN=C(N)N)NC(=O)[C@H](CCCCN)NC(=O)[C@H](C)NC(=O)[C@@H](NC(=O)[C@@H](N)CCCCN)[C@@H](C)CC)C(=O)N[C@@H](Cc1c[nH]c2ccccc12)C(=O)N[C@@H](CCCCN)C(=O)N[C@H](C(=O)N[C@@H](CC(C)C)C(=O)N[C@@H](CCCN=C(N)N)C(=O)N[C@@H](CCCN=C(N)N)C(=O)N[C@@H](CCCN=C(N)N)C(=O)N[C@@H](CC(C)C)C(N)=O)[C@@H](C)CC [KIAKRIWKILRRRL]", "2.11 µM"],
  ["CC(C)C[C@H](NC(=O)CNC(=O)[C@H](C)NC(=O)[C@H](CCCN=C(N)N)NC(=O)[C@H](Cc1cnc[nH]1)NC(=O)CNC(=O)CN)C(=O)N[C@@H](CCC(N)=O)C(=O)N[C@@H](Cc1ccccc1)C(=O)N1CCC[C@H]1C(=O)N[C@H](C(=O)NCC(=O)N[C@@H](CCCN=C(N)N)C(=O)N[C@H](C(=O)N[C@@H](Cc1cnc[nH]1)C(=O)N[C@@H](CCCN=C(N)N)C(=O)N[C@@H](CC(C)C)C(=O)N[C@@H](CC(C)C)C(=O)N[C@@H](CCCN=C(N)N)C(=O)N[C@@H](CCCCN)C(N)=O)C(C)C)C(C)C [GGHRAGLQFPVGRVHRLLRK]", "16 µM"],
  ["CC[C@H](C)[C@H](N)C(=O)N[C@@H](Cc1cnc[nH]1)C(=O)N[C@@H](CCCCN)C(=O)N[C@@H](Cc1ccccc1)C(=O)N[C@@H](Cc1c[nH]c2ccccc12)C(=O)N[C@@H](CCCN=C(N)N)C(=O)N[C@@H](CCCN=C(N)N)C(=O)N[C@@H](Cc1c[nH]c2ccccc12)C(=O)N[C@@H](Cc1ccccc1)C(=O)N[C@@H](CCCCN)C(=O)N[C@@H](Cc1cnc[nH]1)C(=O)N[C@H](C(N)=O)[C@@H](C)CC [IHKFWRRWFKHI]", "16 µM"],
  ["CC(C)C[C@H](NC(=O)[C@H](CC(C)C)NC(=O)[C@H](CCCN=C(N)N)NC(=O)[C@H](CCCN=C(N)N)NC(=O)[C@H](CC(C)C)NC(=O)[C@H](CCCN=C(N)N)NC(=O)[C@H](CCCN=C(N)N)NC(=O)[C@H](CC(C)C)NC(=O)[C@H](CC(C)C)NC(=O)[C@@H](N)CCCN=C(N)N)C(=O)N[C@@H](CCCN=C(N)N)C(N)=O [RLLRRLRRLLR]", "4 µM"]
]}

Take each entry in turn and give its MIC.
1. CC(C)C[C@H](NC(=O)[C@H](Cc1ccc(O)cc1)NC(=O)[C@H](Cc1ccc(O)cc1)NC(=O)CNC(=O)[C@H](Cc1c[nH]c2ccccc12)NC(=O)[C@@H](N)CO)C(=O)NCC(=O)O [SWGYYLG]
2. NC(=O)[C@H](CCCN=C(N)N)NC(=O)[C@H](Cc1ccccc1)NC(=O)[C@H](Cc1ccccc1)NC(=O)[C@H](CCCN=C(N)N)NC(=O)[C@H](CCCN=C(N)N)NC(=O)[C@H](Cc1ccccc1)NC(=O)[C@H](CCCN=C(N)N)NC(=O)[C@H](CCCN=C(N)N)NC(=O)[C@H](Cc1ccccc1)NC(=O)[C@H](Cc1ccccc1)NC(=O)[C@@H](N)CCCN=C(N)N [RFFRRFRRFFR]
3. CC[C@H](C)[C@H](NC(=O)[C@H](CCCCN)NC(=O)[C@H](C)NC(=O)[C@H](C)NC(=O)[C@H](C)NC(=O)[C@H](CCCCN)NC(=O)[C@H](C)NC(=O)[C@H](C)NC(=O)[C@H](C)NC(=O)[C@H](CCCCN)NC(=O)[C@@H](NC(=O)[C@@H](N)Cc1c[nH]c2ccccc12)[C@@H](C)CC)C(=O)N[C@@H](Cc1c[nH]c2ccccc12)C(N)=O [WIKAAAKAAAKIW]
4. NCC(=O)N[C@@H](CCCN=C(N)N)C(=O)N[C@@H](Cc1c[nH]c2ccccc12)C(=O)N[C@@H](CCCN=C(N)N)C(=O)N[C@@H](Cc1c[nH]c2ccccc12)C(=O)N[C@@H](Cc1c[nH]c2ccccc12)C(=O)N[C@@H](Cc1c[nH]c2ccccc12)C(=O)N[C@@H](CCCN=C(N)N)C(=O)N[C@@H](Cc1c[nH]c2ccccc12)C(=O)N[C@@H](CCCN=C(N)N)C(=O)N[C@@H](Cc1c[nH]c2ccccc12)C(N)=O [GRWRWWWRWRW]
5. CC[C@H](C)[C@H](N)C(=O)N[C@@H](CC(N)=O)C(=O)N[C@@H](Cc1c[nH]c2ccccc12)C(=O)N[C@@H](CC(C)C)C(=O)N[C@@H](CCCCN)C(=O)N[C@@H](CC(C)C)C(=O)NCC(=O)N[C@@H](CCCCN)C(=O)N[C@@H](CCSC)C(=O)N[C@H](C(=O)N[C@H](C(=O)N[C@@H](CC(=O)O)C(=O)N[C@@H](C)C(=O)N[C@@H](CC(C)C)C(N)=O)[C@@H](C)CC)C(C)C [INWLKLGKMVIDAL]
6. CC[C@H](C)[C@H](N)C(=O)N[C@@H](CC(C)C)C(=O)NCC(=O)N[C@H](C(=O)N[C@H](C(=O)N[C@@H](CC(C)C)C(=O)NCC(=O)N[C@@H](CC(C)C)C(=O)N[C@@H](CC(C)C)C(=O)N[C@@H](CCCCN)C(=O)N[C@@H](C)C(=O)N[C@@H](CC(C)C)C(N)=O)[C@@H](C)CC)[C@@H](C)O [ILGTILGLLKAL]

1. > 50 µM
2. 4 µM
3. 32 µM
4. 4 µM
5. 4 µM
6. 16 µM
